assay: chemical genetic growth profiling, strain panel (AID 1159580);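 further: tested at 20 µM; growth read once vehicle control cultures reached saturation at 30 °C; lower values mean less growth of the strain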; settings: S. cerevisiae deletion strains, growth OD, locus YDL035C, strain GPR1
In all, about 5,500 compounds went through this assay and about 2,000 (36%) were called active. Another 18% or so got no clear call; they are omitted. No stated cut-off is given here; in the data, active means normalized growth mostly below about 0.91 (no sharp cut-off); inconclusive means no clear call, values can overlap the other calls; inactive means mostly above about 0.92. The list shows a part of the results.
Just give me one of these, please: active, inactive

Task: What outcome does the record of this test show for CC(=O)OCC(=O)[C@@]1(O)CCC2C3C[C@H](C)C4=CC(=O)C=CC4(C)C3[C@@H](O)CC21C (some centres undefined) ?
Result: inactive

Task: So what was the verdict on CCC(=O)OCC(=O)[C@@]1(OC(=O)CC)[C@@H](C)CC2C3CCC4=CC(=O)C=C[C@]4(C)C3(F)[C@@H](O)C[C@@]21C (some centres undefined) in this test?
Result: active

Task: // outcome(item) with item = CCC(=O)OCC(=O)C1(OC(=O)CC)C(C)CC2C3CCC4=CC(=O)C=CC4(C)C3(Cl)C(O)CC21C (centres undefined)
Result: inactive

Task: Please let me know the test result on file for Nc1ccc(S(=O)(=O)Nc2ncccn2)cc1 .
Result: inactive

Task: // outcome(item) with item = O=C(Oc1ccccc1C(=O)O)c1ccccc1O
Result: inactive

Task: Recorded test call requested for CCC(=O)O[C@]1(C(=O)CCl)[C@@H](C)CC2C3CCC4=CC(=O)C=C[C@]4(C)[C@@]3(F)[C@@H](O)C[C@@]21C (some centres undefined)
Result: inactive

Task: Recorded call for CC(=O)Oc1ccccc1C(=O)Oc1ccccc1C(=O)O ?
Result: inactive

Task: Hi team, can someone confirm the assay call for CC(C)Nc1nc(Cl)nc(NC(C)C)n1 ?
Result: inactive

Task: Dear colleague, could you share the recorded outcome for COc1nc(NC(C)C)nc(NC(C)C)n1 when you have a moment?
Result: inactive

Task: Returns: the outcome recorded for CC(=O)O[C@@H]1CC2C(C)(CC[C@H](O)C2(C)C)C2CC[C@]3(C)C(=CC(=O)O[C@H]3c3ccoc3)C21C (some centres undefined) in this assay.
Result: inactive

Task: For O=C(O)c1cc(O)ccc1O , what call appears in the results of this test?
Result: inactive

Task: # fetch the recorded call for COc1cccc2c1CCC1=CC(=O)CC[C@@]12C here
Result: inactive

Task: Could you check what this test reported for Nc1nc(/C(=C/CC(=O)O)C(=O)N[C@@H]2C(=O)N3C(C(=O)O)=CCS[C@H]23)cs1 ?
Result: inactive

Task: Assay outcome for COC(=O)C[C@H]1C(C)(C)[C@@H](O)[C@@H]2CC3=C4CC(O)O[C@@H](c5ccoc5)[C@]4(C)CCC3[C@@]1(C)C2=O (some centres undefined) : what was it?
Result: inactive

Task: Hi, do you know how COc1cc(C)c2c(=O)c3c(O)cc(O)cc3oc2c1 came out in this test?
Result: inactive

Task: Per the records of this test, what outcome belongs to C[C@@H]1CC[C@@]23CCC4(C)[C@@](C=CC5[C@@]6(C)CCC(=O)C(C)(C)C6CC[C@]54C)(OC2=O)C3[C@H]1C (some centres undefined) ?
Result: inactive

Task: Hi team, can someone confirm the assay call for COc1ccc(-c2cc(=O)c3c(O)cc(O)cc3o2)cc1O ?
Result: inactive

Task: Fill in: this test's call for CC1(C)C(=O)CC[C@@]2(C)C1C[C@@H](O)[C@@]1(C)C3=CC(=O)O[C@@H](c4ccoc4)[C@]3(C)CCC21 (some centres undefined) is ___
Result: inactive

Task: Identify the outcome logged in this assay for the compound shown: CCCCC(=O)O[C@]1(C(=O)CO)[C@@H](C)CC2C3CCC4=CC(=O)C=C[C@]4(C)[C@@]3(F)C(O)C[C@@]21C (some centres undefined)
Result: inactive
